The following compounds are shown together with reported growth values.
System: SR leukemia
EXPERIMENTAL DETAILS: NCI-60 one-dose screen, 48 h (100 = growth as untreated, 0 = no growth, -100 = all killed)
APPLIED CONDITIONS: 10 µM unless noted
Compounds without any hit were thinned out: in the full panel of roughly 83,000, 20% have a hit.
RECORDED ENDPOINT: growth (%)

smiles_record=OC(c1ccc(Cl)cc1)(c1ccc(Cl)cc1)C(O)(c1ccc(Cl)cc1)c1ccc(Cl)cc1 uom=% data_value=25.9
smiles_record=O=C1/C(=C/c2ccc(OCc3ccccc3)cc2)Oc2cc(OCCN3CCCCC3)ccc21 uom=% data_value=13.3
smiles_record=CCOC(=O)CCC[P+](c1ccccc1)(c1ccccc1)c1ccccc1 uom=% data_value=59.5
smiles_record=CCOC(=O)c1sc2nc(-c3cc(OC)c(OC)c(OC)c3)nc(N3CCOCC3)c2c1C uom=% data_value=41.8
smiles_record=COCc1nc2ccccc2[nH]1 uom=% data_value=101

----------
System: SK-MEL-2 melanoma
EXPERIMENTAL DETAILS: NCI-60 one-dose screen, 48 h (100 = growth as untreated, 0 = no growth, -100 = all killed)
APPLIED CONDITIONS: 10 µM unless noted
The panel holds about 83,000 compounds, 20% with a hit somewhere; the sample as a whole holds those more often.
growth of 90% or higher: 1. Under 90%: 0.

compound=O=C1/C(=C\c2cccn2Cc2ccccc2)c2ccccc2N1c1c(Cl)cccc1Cl class=0
compound=CNC(=O)c1cc(Oc2cccc3nc(NC(=O)Nc4cc(C(F)(F)F)cc(C(F)(F)F)c4)ccc23)ccn1 class=0
compound=C[C@]12CCc3c(ccc4cc(O)ccc34)[C@@H]1CC[C@H]2O class=1
compound=COc1ncc(-c2ccc3nccc(C#CCCCCC(=O)O)c3c2)cc1NS(=O)(=O)c1ccc(F)cc1F class=0
compound=C[n+]1c(-c2ccccc2)c2cc(N)ccc2c2ccccc21 class=0
compound=CCCCOC(=O)c1cccc([N+](=O)[O-])c1 class=1
compound=C[C@@H]1C[C@H]2C(=O)O[C@@H](C)[C@H](NC(=O)[C@H](Cc3cc(F)cc(F)c3)NC(=O)Nc3ccc(C4CC4)cc3F)C(=O)N3CCC[C@H]3C(=O)N3CCCC[C@H]3C(=O)N[C@@H](C)C(=O)N2C1 class=0
compound=O=C(Nc1cccc(C2=NCCN2)c1)c1cccc(C(=O)Nc2cccc(C3=NCCN3)c2)c1 class=1
compound="CC1(C(=O)O)CCC(N)(C(=O)O)C1(C)C (stereo not given)" class=1
compound=COc1ccc(NC(=S)NNc2ccc(-c3ccc(OC)c(OC)c3)nn2)cc1 class=1
compound=O=C1Nc2ccccc2/C1=C/C(=O)c1ccc(N2CCOCC2)cc1 class=1
compound=C1=C[C@H]2O[C@@H]1c1ccc3[nH]ccc3c12 class=1
compound=CCc1ccc(C2=C/C(=C/c3ccccc3)C(=O)N2CCc2ccc(S(N)(=O)=O)cc2)cc1 class=1
compound=COc1cc2c(=O)[nH]c3cc([N+](=O)[O-])ccc3c2cc1[N+](=O)[O-] class=0
compound=Cc1cc(C)c(-c2cc(O)c(-c3c(C)cc(C)cc3C)cc2O)c(C)c1 class=0
compound=Cn1cc(-c2nnc(-c3cn(C)c4ncccc34)o2)c2ccccc21 class=0
compound=O=C(Nc1cc(-c2cccnc2)nc(NCCCN2CCOCC2)n1)c1cc(Br)cc(C(F)(F)F)c1 class=0
compound=CCOC(=O)c1ccc2nc(-c3c(C)nn(-c4ccccc4)c3N3CCOCC3)[nH]c2c1 class=1
compound=O=C1/C(=C/c2cccc(OCc3ccccc3)c2)Oc2cc(OCCN3CCCCC3)ccc21 class=1
compound=Clc1ccc(N2CCN(CCCN3CCN(c4cccc(Cl)c4)CC3)CC2)cc1 class=1

----------
Tested on: 786-0 renal
EXPERIMENTAL DETAILS: NCI-60 one-dose screen, 48 h
APPLIED CONDITIONS: 10 µM unless noted
This is part of a sample that, as a whole, favours compounds with a hit. Of some 83,000 tested, about 20% had one in any assay. Calls of active or inactive are those of the source. How the source made its calls: active means growth percent below 10; inactive means the rest.
Classes used: 1 for active, 0 for inactive

compound=C=C(C)[C@@H]1CC[C@]2(C(=O)OC)CC[C@]3(C)[C@H](CC[C@@H]4[C@@]5(C)CC/C(=N\OCCC(=NCCC#N)NOCCC#N)C(C)(C)[C@@H]5CC[C@]43C)[C@@H]12 class=1
compound=COC(=O)c1c(C)[nH]c(/C=C2\N=C(c3ccc[nH]3)C=C2OC)c1C class=1
compound=CC(C)C1=NOC(=O)C1=Cc1cn(-c2ccccc2)nc1-c1cccc([N+](=O)[O-])c1 class=0
compound="CCCC(NC(=O)OCc1ccccc1)C(=O)O (centres undefined)" class=0

----------
Tested on: CCRF-CEM leukemia
EXPERIMENTAL DETAILS: NCI-60 one-dose screen, 48 h
APPLIED CONDITIONS: 10 µM unless noted
About 83,000 compounds went through this panel and 20% of them were active in at least one assay; those are over-represented in the sample as a whole. The source made the active and inactive calls. The calls were made as follows: active = growth percent below 10; inactive = the rest.
Possible outcomes: T for active, F for inactive

molecule="CCN(CC)c1ccc2cc(NC(=O)OCCNC(=O)CCNC(=O)[C@H](CC(C)C)NC(=O)C(C)(C)NC(=O)C(C)(C)NC(=O)[C@H](CC(C)C)NC(=O)CCNC(=O)C(C)(C)NC(=O)[C@H](CC(C)C)NC(=O)CCNC(=O)[C@@](C)(CC)NC(=O)[C@H](C)NC(=O)CCNC(=O)C(C)(C)NC(=O)[C@H](C)NC(=O)[C@@H]3CCCN3C(=O)[C@@](C)(CC)NC(=O)[C@H](Cc3ccccc3)NC(=O)C3CCCN3C(=O)C(C)(C)NC(=O)C3CCCN3C(=O)C(C)(C)NC(C)=O)c(=O)oc2c1 (stereo not given in full)" class=T
molecule=CC1(C)CC[C@]23CC[C@]4(C)[C@H](CC[C@@H]5[C@@]6(C)C/C(=C/c7ccncc7)C(=O)C(C)(C)[C@@H]6CC[C@]54C)[C@H]2[C@H]1OC3=O class=F
molecule=O=S(=O)(NCCCNc1nccc(-c2c(-c3cccc(F)c3)nc3occn23)n1)c1cccc2ccccc12 class=F
molecule=O=C(CSc1nc2ccc([N+](=O)[O-])cc2[nH]1)Nc1ccc(F)c(Cl)c1 class=F
molecule=C=C(C)[C@@H]1CC[C@]2(COCCCN)CC[C@]3(C)[C@H](CC[C@@H]4[C@@](C)(CCCNCCCN)[C@H](C(=C)C)CC[C@]43C)[C@@H]12 class=T

----------
Test system: IGROV1 ovarian
EXPERIMENTAL DETAILS: NCI-60 one-dose screen, 48 h
APPLIED CONDITIONS: 10 µM unless noted
About 83,000 compounds went through this panel and 20% of them were active in at least one assay; those are over-represented in the sample as a whole. Calls of active or inactive are those of the source. How the source made its calls: active means growth percent below 10; inactive means the rest.
Outcomes: active, inactive

molecule="CCN(CC)c1ccc2cc(C(Nc3ccc(C)cc3)c3nnnn3C(C)(C)C)c(=O)oc2c1 (configuration not stated)" class=inactive
molecule=C[C@@H]1C[C@H]2C(=O)O[C@@H](C)[C@H](NC(=O)[C@H](Cc3cc(F)cc(F)c3)NC(=O)Nc3ccc(C4CC4)cc3F)C(=O)N3CCC[C@H]3C(=O)N3CCCC[C@H]3C(=O)N[C@@H](C)C(=O)N2C1 class=inactive
molecule=CC1(C)CC[C@]2(C(=O)O)CC[C@]3(C)C(=CC[C@@H]4[C@@]5(C)C/C(=C/c6ccco6)C(=O)C(C)(C)[C@@H]5CC[C@]43C)[C@@H]2C1 class=active
molecule="O=C1CC(c2ccccc2)Cc2nc3ccc(Cl)cc3cc21 (configuration not stated)" class=inactive
molecule="C/C=C/C1OC23CCCCC2C(C#N)(C(=N)O3)C1(C#N)C#N (configuration not stated)" class=inactive
molecule="N#Cc1ccc(-c2ccc(COc3ccc(CC4SC(=O)NC4=O)cc3)cc2)cc1 (configuration not stated)" class=inactive
molecule="COc1ccc2nc3c(cc2c1)C(=O)CC(c1ccccc1)C3 (configuration not stated)" class=inactive
molecule=Cc1cc2c(C(C)C)c(O)c(O)c(C=NCc3ccoc3)c2c(O)c1-c1c(C)cc2c(C(C)C)c(O)c(O)c(C=NCc3ccco3)c2c1O class=inactive
molecule=COC(=O)c1c(C)[nH]c(/C=C2\N=C(c3ccc[nH]3)C=C2OC)c1C class=active
molecule="C=CCCC1(C)NC(=O)NC1=O (configuration not stated)" class=inactive
molecule=CC(C)[C@H]1COC(=O)N1[C@@H]1C(=O)N([C@@H](CCC(=O)N2CCN(C3CCCC3)CC2)C(=O)N[C@@H]2CCCc3ccccc32)[C@@H]1/C=C/c1cccc(Cl)c1 class=inactive
molecule=O=C1COCCN1c1ccc(NCc2cn(Cc3ccc(F)cc3)c3ccccc23)cc1 class=active
molecule=COc1cc(/C=C/C(=O)/C=C/c2ccc(-n3ccnc3C)cc2)ccc1O class=active
molecule=OC(c1ccc(Cl)cc1)(c1ccc(Cl)cc1)C(O)(c1ccc(Cl)cc1)c1ccc(Cl)cc1 class=inactive
molecule=CCOC(=O)c1nc2c3ccccc3ccn2c1C(=O)OC class=inactive
molecule=COC(=O)[C@H](CC(C)C)NC(=O)NC(=O)NC(=O)CI class=inactive
molecule=C=C(C)[C@@H]1CC[C@]2(C(=O)OC)CC[C@]3(C)[C@H](CC[C@@H]4[C@@]5(C)CC/C(=N\OCCC(=NCCC#N)NOCCC#N)C(C)(C)[C@@H]5CC[C@]43C)[C@@H]12 class=inactive
molecule=O=[N+]([O-])c1cccc(N=NNc2cccc([N+](=O)[O-])c2)c1 class=inactive
molecule=CCN1c2ccccc2C(Cl)(c2ccc(N(C)C)cc2)c2ccccc21 class=active
molecule=O=C(Nc1cc(F)cc2cccnc12)c1cnc(N2CCNCC2)cn1 class=inactive
molecule=CC(C)CCSC1=CC(=O)c2ccccc2C1=O class=active
molecule=COc1cc(-c2nc(SCCC(C)C)nc(Nc3ccc(S(N)(=O)=O)cc3)c2C#N)cc(OC)c1OC class=inactive
molecule=CCCCCn1c(C)cc(/C=C\c2ccc3cc(C)ccc3[n+]2C)c1C class=active
molecule=Cc1cc(C)c(O)c(CNCCCNCc2cc(C)cc(C)c2O)c1 class=inactive
molecule=COCCCNc1nc(NC(=O)c2cc(OC)cc(OC)c2)cc(-c2cccnc2)n1 class=inactive
molecule=[2H]C1([2H])CCN(C(=O)C2CC2)c2cc(NS(=O)(=O)c3ccc(-c4cccc(C(N)=O)c4)cc3)ccc21 class=inactive
molecule="CCOC(=O)C1=C(C(=O)c2ccc(Br)cc2)C(c2ccc(Br)cc2)NC(=S)N1 (configuration not stated)" class=inactive
molecule=c1ccc(-c2n[nH]c(-c3ccccn3)n2)nc1 class=inactive
molecule=COc1cc(OC)c(/C=C/C(=O)c2c(N)cc(OC)cc2OC)c(OC)c1 class=inactive
molecule="O=C1NC(=O)C(Cc2ccc(OCc3ccc(-c4cc(F)c(F)c(F)c4)cc3)cc2)S1 (configuration not stated)" class=inactive
molecule=O=C1COCCN1c1ccc(NCc2cn(Cc3ccccc3)c3ccccc23)cc1 class=inactive
molecule=CNc1cc(C(=O)O)nc(NC)n1 class=inactive
molecule="CCCCC(CC)COC(=O)C[N+](C)(C)CCOC(c1ccccc1)c1ccccc1 (configuration not stated)" class=active
molecule=COc1ccc(N(c2nc(-c3ccc([N+](=O)[O-])cc3)cs2)C(C)C)cc1 class=inactive
molecule="CCOC(=O)c1nn(C2CCCCO2)c2ccc(NC(=O)CSc3nc4ccccc4c(=O)[nH]3)cc12 (configuration not stated)" class=inactive
molecule=C=C(C)[C@@H]1CC[C@]2(C(=O)NCCNCCNCCN)CC[C@]3(C)[C@H](CC[C@@H]4[C@@]5(C)CCC(=O)C(C)(C)[C@@H]5CC[C@]43C)[C@@H]12 class=active
molecule=O=C(O)c1cc([N+](=O)[O-])ccc1Br class=inactive
